- Protocol notes: Passive membrane permeability of the compound in phosphate buffered saline assessed as concentration of the compound in donor plate at 200 uM incubated for 5 hrs by PAMPA assay based HPLC analysis
- Assay type: ADME
Result type: Activity (µM)
Please reply with the bare figure in µM and do not write the unit itself.

Example entries begin here.
                                   compound  value_observed
0  NC(=O)c1cccc(NC(=O)[C@@H](NC(=O)c2ccc(Oc3ccc(C(F)(F)F)cc3)cc2)c2ccc(OCc3ccccc3)cc2)c1             188
1                Cn1c(=O)c2c(ncn2C)n(C)c1=O             173
2  N#Cc1ccc(Oc2ccc(C(=O)N[C@H](C(=O)Nc3cccc(C(N)=O)c3)c3ccc(OCc4ccccc4)cc3)cc2)cc1             177
3  NC(=O)c1cccc(NC(=O)[C@@H](NC(=O)c2ccc(-c3ccco3)cc2)c2ccc(OCc3ccccc3)cc2)c1             169
4  NC(=O)c1cccc(NC(=O)[C@@H](NC(=O)c2ccc(C(=O)c3ccccc3)cc2)c2ccc(OCc3ccccc3)cc2)c1             178

**Q:** Item NC(=O)c1cccc(NC(=O)[C@@H](NC(=O)c2ccc(N3CCOCC3)cc2)c2ccc(OCc3ccccc3)cc2)c1 has what recorded Activity?
**A:** 181

**Q:** Fill in the blank: the reported Activity of NC(=O)c1cccc(NC(=O)[C@@H](NC(=O)c2ccc(Oc3ccc4c(c3)OCO4)cc2)c2ccc(OCc3ccccc3)cc2)c1 is ____.
**A:** 180

**Q:** Fill in the blank: the reported Activity of NC(=O)c1ccc(CNC(=O)[C@@H](NC(=O)c2ccc(Oc3ccccc3)cc2)c2ccc(OCc3ccccc3)cc2)cc1 is ____.
**A:** 180

**Q:** Bench note: what Activity did NC(=O)N1c2ccccc2C=Cc2ccccc21 [CARBAMAZEPINE] show?
**A:** 187

**Q:** Any idea what its Activity is? The compound is NC(=O)c1cccc(NC(=O)[C@@H](NC(=O)c2ccc(Oc3ccccc3)cc2)c2ccc(OCc3ccccc3)cc2)c1
**A:** 164

**Q:** Could you tell me which Activity is on file for NC(=O)c1cccc(NC(=O)[C@@H](NC(=O)c2ccc(-c3ccc(Cl)cc3)cc2)c2ccc(OCc3ccccc3)cc2)c1 ?
**A:** 187

**Q:** Would you mind telling me what Activity value was observed for O=C1NC(=O)C(c2ccccc2)(c2ccccc2)N1 ?
**A:** 166
